Source: PubChem BioAssay (NCI)

Exercise: for every item that follows, state its recorded growth.
# System: UO-31 renal
# protocol_text: NCI-60 one-dose screen, 48 h (100 = growth as untreated, 0 = no growth, -100 = all killed)
# condition_set: 10 µM unless noted
About 83,000 compounds went through this panel and 20% of them were active in at least one assay; those are over-represented in the sample as a whole.
Numbers only, in %.

Consider the worked cases shown below.
Cc1ccccc1N1C(c2ccccc2)=NNC12C=CC(=O)c1c(O)cccc12 (centres undefined): 57.5
Oc1[nH]c2ccc(Cl)cc2c1/C=c1/ccc2c(c1)N=C(c1ccc(F)cc1)N=2: 61.4
CCOC(=O)Nc1ccc2nc(-c3cscn3)[nH]c2c1: 50.9
Cc1cc(-c2nnc(/C=C/c3ccc4c(c3)OCO4)o2)n[nH]1: 70.1
COc1cc(/C=C/c2ccc3c(Br)cc(Br)c(O)c3n2)ccc1O: 0.12

I would be grateful if you could provide growth for each of the following entries.
1. O=C(Oc1c(Cl)c(Cl)c(Cl)c(Cl)c1Cl)C1CCCN1C(=O)OCc1ccccc1 (centres undefined)
2. COc1ccc([C@@H]2[C@@H](Oc3ccccc3)C(=O)N2c2cc(OC)c(OC)c(OC)c2)cc1F
3. CCCOC(=O)C1c2cc3c(cc2CC(C)C1C(=O)OCCC)OCO3 (centres undefined)
4. COc1cc(C2CC(c3ccc(Nc4ccnc5cc(Cl)ccc45)cc3)=NN2c2ccccc2)cc(OC)c1OC (centres undefined)

[56.1, 24.4, 65.7, 57.8]

====

# Test system: COLO 205 colon
# protocol_text: NCI-60 one-dose screen, 48 h (100 = growth as untreated, 0 = no growth, -100 = all killed)
# condition_set: 10 µM unless noted
Compounds without any hit were thinned out: in the full panel of roughly 83,000, 20% have a hit.
outcome_measure: growth (%)
Answers are plain numbers, in %.

Would you please look over these solved cases?
COc1ccc(/C=C(/C(=O)N2CCN(c3ccccc3)CC2)c2cc(OC)c(OC)c(OC)c2)cc1O: 35.7
O=c1cc(-c2ccc3c(c2)OCCO3)oc2cc(Cl)ccc12: 40.7

Lab note: CN(C)c1ccc(/C=N/Nc2nnc3n2N=C(c2ccc(Cl)cc2)CS3)cc1 gave growth of 105

====

# Test system: NCI-H322M lung
# protocol_text: NCI-60 one-dose screen, 48 h (100 = growth as untreated, 0 = no growth, -100 = all killed)
# condition_set: 10 µM unless noted
The panel holds about 83,000 compounds, 20% with a hit somewhere; the sample as a whole holds those more often.
outcome_measure: growth (%)
Answers are plain numbers, in %.

Reference set, count: 3
Cc1cc(Cl)c2ccc(N(C)C)cc2n1: 110
CNC(=O)c1cc(Oc2ccc(NC(=O)c3[nH]c(SC)nc3-c3ccc(F)cc3)cc2)ccn1: 85.4
CC(CN1CCN(CCOCCO)CC1)CN1c2ccccc2Sc2ccc(Cl)cc21 (centres undefined): 88.2

Below are 7 molecules. Give each one its growth.
1. CC(=O)c1cc(C(=O)c2ccc3c(c2)Sc2ccccc2N3)c2c(C)cccn12
2. COC(=O)/C=C/c1cc(OC(C)=O)c2c(c1)[C@@H](C(=O)OC)[C@H](c1ccc(OC(C)=O)c(OC(C)=O)c1)O2
3. CC(=O)OC1Oc2cc(C)c(C)cc2-c2oc(=O)c(-c3cc4ccccc4oc3=O)cc21 (centres undefined)
4. COc1ccc(/C(=C\c2cc(OC)c(OC)c(OC)c2)C(=O)N2CCCNCC2)cc1
5. Fc1ccc(-c2nnc(N3CCOCC3)c3ccccc23)cc1
6. CC(C)c1[nH]ncc1-c1nc2ccc3[nH]ncc3c2c2c1CCCC2
7. Clc1ncnc2scc(C3COc4ccccc4O3)c12 (centres undefined)

1: 37.4; 2: 60; 3: 126; 4: 103; 5: 94.2; 6: 39.7; 7: 98.6
